# Assay overview: chemical genetic growth profiling, strain panel (AID 1159580);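 also: tested at 20 µM; growth read once vehicle control cultures reached saturation at 30 °C; 1 = growth at the plate median or of vehicle wells; lower values mean less growth of the strain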
# Measurement context: S. cerevisiae deletion strains, growth OD, locus YJR043C, strain POL32, active compounds read low
The whole screen tested about 5,500 compounds, of which about 2,000 (36%) were called active. Roughly 18% stayed inconclusive and do not appear here. The list shows a part of the results.
The following compounds are listed with their measured normalized growth values.
Response field accepts a number only; no unit should be typed.

[
  {
    "Compound": "CC1CC(=O)Nc2ccccc2N1C(=O)c1ccc([N+](=O)[O-])cc1 (stereo not drawn)",
    "normalized growth": 1.02
  },
  {
    "Compound": "C[C@@H]1CCC2[C@](C)(CO)[C@@H](O)CC[C@]2(C)[C@@]12CC[C@@](CO)(CCO)O2 (stereo partly drawn)",
    "normalized growth": 1.04
  }
]

API: the following record is the query input.
### Prompt Read the entry CC[C@H]1CN2CCC1C[C@@H]2[C@@H](O)c1ccnc2ccc(OC)cc12 (stereo partly drawn) and write its reported normalized growth.
### Response 1.01

----------
# Assay overview: chemical genetic growth profiling, strain panel (AID 1159580);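 also: tested at 20 µM; growth read once vehicle control cultures reached saturation at 30 °C; 1 = growth at the plate median or of vehicle wells; lower values mean less growth of the strain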
# Measurement context: S. cerevisiae deletion strains, growth OD, locus YLR262C, strain YPT6 (second series), active compounds read low
The campaign covered roughly 5,500 compounds. About 2,000 (36%) were called active. Inconclusive results (about 18%) are left out. The list shows a part of the results.
normalized growth strictly less than 1 = true (1). Otherwise false (0).

[
  {
    "Structure smiles string": "NC(=O)c1cc([N+](=O)[O-])cc([N+](=O)[O-])c1",
    "Group label": "false (0)"
  },
  {
    "Structure smiles string": "CC1=CC(=O)C(C(C)C)=CC1=O",
    "Group label": "true (1)"
  },
  {
    "Structure smiles string": "CSc1nc(NC(C)C)nc(NC(C)C)n1",
    "Group label": "true (1)"
  }
]

Shifting focus to the compound that follows.
### Prompt Threshold test, normalized growth < 1: "C/C=C(\C)C(=O)O[C@@H]1c2c(ccc3ccc(=O)oc23)OC(C)(C)[C@@H]1OC(C)=O"
### Response true (1)

----------
# Assay overview: chemical genetic growth profiling, strain panel (AID 1159580);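 also: tested at 20 µM; growth read once vehicle control cultures reached saturation at 30 °C; 1 = growth at the plate median or of vehicle wells; lower values mean less growth of the strain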
# Measurement context: S. cerevisiae deletion strains, growth OD, locus YNL207W, strain RIO2, active compounds read low
Among all 5,500 compounds or so, about 2,000 (36%) were called active. Not shown: some 18% with an inconclusive outcome. The list shows a part of the results.
The following compounds are listed with their measured normalized growth values.
Response field accepts a number only; no unit should be typed.

Example compounds with recorded normalized growth:
[
  {
    "Compound": "C/C(=N/NC(N)=S)c1csc(-c2ccccc2)n1",
    "Observation type": "normalized growth",
    "Assay result": 0.931
  },
  {
    "Compound": "O=C(Nc1cc2ccccc2s1)N1CCN(Cc2c(F)cccc2Cl)CC1",
    "Observation type": "normalized growth",
    "Assay result": 0.976
  },
  {
    "Compound": "CCn1nc(C)cc1C(=O)Sc1cccc(Br)c1",
    "Observation type": "normalized growth",
    "Assay result": 0.918
  }
]

### Prompt Read the entry "FC(F)(F)Sc1ccc(OCc2n[nH]c(=S)n2-c2ccccc2)cc1" and write its reported normalized growth.
### Response 0.985

### Prompt Read the entry "Cc1cc(-c2onc(C)c2C(=O)Sc2ccccc2)no1" and write its reported normalized growth.
### Response 0.947

### Prompt Read the entry "N#Cc1ccc2[nH]cc(CCN(Cc3ccccc3)Cc3ccccc3)c2c1" and write its reported normalized growth.
### Response 0.979

### Prompt Read the entry "O=C(OCc1ccccc1Br)c1cc([N+](=O)[O-])cc([N+](=O)[O-])c1" and write its reported normalized growth.
### Response 0.966

### Prompt Read the entry COc1ccccc1N1CCN(C(=O)C(C)c2ccc(CC(C)C)cc2)CC1 (configuration not stated) and write its reported normalized growth.
### Response 0.983

### Prompt Read the entry "CC(C)/C(=N/OC(=O)c1ccc([N+](=O)[O-])cc1)c1ccccc1" and write its reported normalized growth.
### Response 0.955

### Prompt Read the entry "N/C(=N/OC(=O)c1cnn(-c2ccc([N+](=O)[O-])cc2)c1C(F)(F)F)c1ccc(Cl)cc1" and write its reported normalized growth.
### Response 0.98

### Prompt Read the entry "CCOC(=O)NC(=S)Nc1ccc(C(C)(C)C)cc1NC(=S)NC(=O)OCC" and write its reported normalized growth.
### Response 0.981

### Prompt Read the entry "N/C(=N/OC(=O)c1ccc([N+](=O)[O-])cc1)c1c(Cl)cccc1Cl" and write its reported normalized growth.
### Response 0.915

### Prompt Read the entry "Cc1ccc(OS(=O)(=O)c2c(Cl)sc(Cl)c2Br)c([N+](=O)[O-])n1" and write its reported normalized growth.
### Response 0.955

### Prompt Read the entry "CC(C)(C)NC(=S)N/N=C\c1cc(Br)c(O)c(Br)c1" and write its reported normalized growth.
### Response 0.964

### Prompt Read the entry "CO/N=C1/CC(C)(C)Cc2c(-c3ccn(C(=O)Nc4cccc(Cl)c4)n3)sc(SC)c21" and write its reported normalized growth.
### Response 0.971

### Prompt Read the entry "O=C(O/N=C1/CCCc2[nH]c3ccccc3c21)c1ccc(Cl)cc1Cl" and write its reported normalized growth.
### Response 0.976

### Prompt Read the entry "O=C1OC(c2ccccc2)=C/C1=C/c1ccccc1" and write its reported normalized growth.
### Response 0.951

### Prompt Read the entry "O=C(Nc1ccc(SC(F)(F)F)cc1)Nc1ccc(Oc2cccc(C(F)(F)F)c2)nc1" and write its reported normalized growth.
### Response 0.996

### Prompt Read the entry "N#C/C(N=Cc1cc(Cl)cc(Cl)c1O)=C(\C#N)N=Cc1cc(Cl)cc(Cl)c1O" and write its reported normalized growth.
### Response 0.916

### Prompt Read the entry "O=C(O/N=C1/CCCc2[nH]c3ccccc3c21)C1CCCCC1" and write its reported normalized growth.
### Response 0.959

### Prompt Read the entry "Cc1ccc(Sc2ncccc2NS(=O)(=O)c2ccc(Cl)cc2)cc1" and write its reported normalized growth.
### Response 0.924

### Prompt Read the entry "Cc1cc(Br)c(O)c(/C=N\NC(=S)NC(C)(C)C)c1" and write its reported normalized growth.
### Response 0.976
